meta.source: ChEMBL document CHEMBL1145346

Quick record of Ki values for 2-dehydropantoate 2-reductase (Escherichia coli K-12, UniProt P0A9J4).

Example entries begin here.
molecule	Ki
Nc1ncnc2c1ncn2[C@@H]1O[C@H](COP(=O)(O)OP(=O)(O)O)[C@@H](O)[C@H]1O [ADENOSINE DIPHOSPHATE]	1050 µM
O=P(O)(O)O	27000 µM

Hi, could you look up Ki for each item in my list?
1. Nc1ncnc2c1ncn2[C@@H]1O[C@H](COP(=O)(O)O)[C@@H](O)[C@H]1O [ADENOSINE PHOSPHATE]
2. Nc1ncnc2c1ncn2[C@@H]1O[C@H](COP(=O)(O)OP(=O)(O)OP(=O)(O)O)[C@@H](O)[C@H]1O [ADENOSINE TRIPHOSPHATE]
3. Nc1ncnc2c1ncn2[C@@H]1O[C@H](COP(=O)(O)O)[C@@H](O)[C@H]1OP(=O)(O)O
4. Nc1ncnc2c1ncn2[C@@H]1O[C@H](COP(=O)(O)OP(=O)(O)OCC2OC(O)[C@H](O)[C@@H]2O)[C@@H](O)[C@H]1OP(=O)(O)O (stereo partly specified)

Output line:
6300 µM
610 µM
240 µM
200 µM

###

- assay_target: 2-dehydropantoate 2-reductase (Escherichia coli K-12, UniProt P0A9J4)
Assign log10 Kd to each entry below.
Answers are given as log10 of Kd in µM.

compound	measured_quantity	numeric_readout
NC(=O)c1ccc[n+]([C@@H]2O[C@H](COP(=O)([O-])OP(=O)(O)OC[C@H]3O[C@@H](n4cnc5c(N)ncnc54)[C@H](OP(=O)(O)O)[C@@H]3O)[C@@H](O)[C@H]2O)c1	log10 Kd	-0.59

Hi, could you look up log10 Kd for each item in my list?
1. Nc1ncnc2c1ncn2[C@@H]1O[C@H](COP(=O)(O)OP(=O)(O)OCC2OC(O)[C@H](O)[C@@H]2O)[C@@H](O)[C@H]1OP(=O)(O)O (stereo partly specified)
2. Nc1nc2c(ncn2[C@@H]2O[C@H](COP(=O)(O)OP(=O)(O)OP(=O)(O)O)[C@@H](O)[C@H]2O)c(=O)[nH]1 [GUANOSINE TRIPHOSPHATE]

Output line:
[1.79, 2.18]

Hi, could you look up log10 Kd for each item in my list?
1. Nc1ncnc2c1ncn2[C@@H]1O[C@H](COP(=O)(O)OP(=O)(O)O)[C@@H](O)[C@H]1O [ADENOSINE DIPHOSPHATE]
2. Nc1ncnc2c1ncn2[C@@H]1O[C@H](COP(=O)(O)OP(=O)(O)OC[C@H]2OC(O)[C@H](O)[C@@H]2O)[C@@H](O)[C@H]1O (stereo partly specified) [ADENOSINE DIPHOSPHATE RIBOSE]

Output line:
1. 2.56
2. 3.80

###

Assign Kd to each entry below.
- assay_target: 2-dehydropantoate 2-reductase (Escherichia coli K-12)
- Sequence (P0A9J4 whole entry): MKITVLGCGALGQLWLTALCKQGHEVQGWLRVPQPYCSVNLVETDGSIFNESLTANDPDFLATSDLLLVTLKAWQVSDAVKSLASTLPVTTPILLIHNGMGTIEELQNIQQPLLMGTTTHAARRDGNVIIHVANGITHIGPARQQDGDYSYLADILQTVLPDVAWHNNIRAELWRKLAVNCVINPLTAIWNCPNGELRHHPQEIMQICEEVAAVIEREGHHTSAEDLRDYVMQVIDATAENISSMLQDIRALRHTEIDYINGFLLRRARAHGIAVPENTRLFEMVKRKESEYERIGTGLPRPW
One number for each entry, in µM.

Example entries begin here.
molecule	unit_of_measurement	numeric_readout
Nc1ncnc2c1ncn2[C@@H]1O[C@H](COP(=O)(O)OP(=O)(O)OP(=O)(O)O)[C@@H](O)[C@H]1O [ADENOSINE TRIPHOSPHATE]	µM	130
Nc1ncnc2c1ncn2[C@@H]1O[C@H](COP(=O)(O)O)[C@@H](O)[C@H]1OP(=O)(O)O	µM	100

Input line: Consider the molecule NC(=O)c1ccc[n+]([C@@H]2O[C@H](COP(=O)([O-])OP(=O)(O)OC[C@H]3O[C@@H](n4cnc5c(N)ncnc54)[C@H](O)[C@@H]3O)[C@@H](O)[C@H]2O)c1 [NADIDE] and give its measured Kd.
Output line: 6900
